- measured.on: T1, human PILRA R78 on cells (human, UniProt Q9UKJ1 20-303)
- T1 construct: also called hPILRA R78; PILRA 78R
- method: flow cytometry on HEK293 PILRA R78 cells with sialidase treatment; with sialidase treatment
parameter: EC50 (nM)

1. Anti-PILRA antibody clone 7 (antibody, V domains shown) VH: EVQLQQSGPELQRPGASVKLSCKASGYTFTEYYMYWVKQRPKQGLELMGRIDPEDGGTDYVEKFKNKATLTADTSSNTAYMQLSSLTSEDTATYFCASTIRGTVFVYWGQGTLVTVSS VL: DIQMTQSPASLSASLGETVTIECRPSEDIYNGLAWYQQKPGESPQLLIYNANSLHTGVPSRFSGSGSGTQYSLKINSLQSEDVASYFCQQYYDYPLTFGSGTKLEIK | 0.3
